assay: clinical; conditions: human, plasma, inhaled, 90 mg, Cmin, ss, imatinib in plasma; MAD Day 7; inhaled 90 mg AV-101 BID; mean
readout kind: concentration at 7 day

**Query** What value of concentration at 7 day has been recorded for this entry: Cc1ccc(NC(=O)c2ccc(CN3CCN(C)CC3)cc2)cc1Nc1nccc(-c2cccnc2)n1
**Result** 534 ng/mL

---

experiment: clinical; details: human, plasma, inhaled or intranasal, 30 mg
readout kind: AUC (ng·h/mL)
Answer with a number only, understood to be in ng·h/mL.

**Query** What value of AUC has been recorded for this entry: Cc1ccc(NC(=O)c2ccc(CN3CCN(C)CC3)cc2)cc1Nc1nccc(-c2cccnc2)n1 [AV-101, imatinib]
**Result** 1920

---

experiment: clinical; settings: human, in vivo, inhaled or intranasal, 1 mg
readout kind: AUC(0-t) (ng·h/mL)
Answer with a number only, understood to be in ng·h/mL.

**Query** What value of AUC(0-t) has been recorded for this entry: Cc1ccc(NC(=O)c2ccc(CN3CCN(C)CC3)cc2)cc1Nc1nccc(-c2cccnc2)n1 [AV-101, imatinib]
**Result** 9.9

---

assay: clinical; settings: human, plasma, inhaled or intranasal, 90 mg
readout kind: AUC (ng·h/mL)
Answer with a number only, understood to be in ng·h/mL.

**Query** What value of AUC has been recorded for this entry: Cc1ccc(NC(=O)c2ccc(CN3CCN(C)CC3)cc2)cc1Nc1nccc(-c2cccnc2)n1 [AV-101, imatinib]
**Result** 7970

---

test: clinical; conditions: human, plasma, inhaled or intranasal, 90 mg, Cmax, imatinib in plasma; MAD Day 1; inhaled 90 mg AV-101; mean
readout kind: Cmax (ng/mL)
Answer with a number only, understood to be in ng/mL.

**Query** What value of Cmax has been recorded for this entry: Cc1ccc(NC(=O)c2ccc(CN3CCN(C)CC3)cc2)cc1Nc1nccc(-c2cccnc2)n1
**Result** 262

---

test: clinical; conditions: human, in vivo, inhaled or intranasal, 3 mg
readout kind: Cmax (ng/mL)
Answer with a number only, understood to be in ng/mL.

**Query** What value of Cmax has been recorded for this entry: Cc1ccc(NC(=O)c2ccc(CN3CCN(C)CC3)cc2)cc1Nc1nccc(-c2cccnc2)n1 [AV-101, imatinib]
**Result** 3.81

---

assay: clinical; details: human, plasma, inhaled or intranasal, 30 mg
readout kind: AUC(0-t) (ng·h/mL)
Answer with a number only, understood to be in ng·h/mL.

**Query** What value of AUC(0-t) has been recorded for this entry: Cc1ccc(NC(=O)c2ccc(CN3CCN(C)CC3)cc2)cc1Nc1nccc(-c2cccnc2)n1
**Result** 673

---

assay: clinical; conditions: human, plasma, inhaled or intranasal, 30 mg, Cmax, imatinib in plasma; MAD Day 1; inhaled 30 mg AV-101; mean
readout kind: Cmax (ng/mL)
Answer with a number only, understood to be in ng/mL.

**Query** What value of Cmax has been recorded for this entry: Cc1ccc(NC(=O)c2ccc(CN3CCN(C)CC3)cc2)cc1Nc1nccc(-c2cccnc2)n1
**Result** 88.7

---

experiment: clinical; settings: human, in vivo, inhaled or intranasal, 1 mg
readout kind: Tmax (h)
Answer with a number only, understood to be in h.

**Query** What value of Tmax has been recorded for this entry: Cc1ccc(NC(=O)c2ccc(CN3CCN(C)CC3)cc2)cc1Nc1nccc(-c2cccnc2)n1 [AV-101, imatinib]
**Result** 3

Recorded values, source patent US20240325390A1.
